Assay: Human HepG2 cell viability assay in 384 well format
Type: toxicity, cell-based
Set-up: dose 125 nL, time 70.5 hour; concentration not given beside the values
Conditions: HepG2 cells, read-out: Inhibition
assay readout: cytotoxicity at 70.5 h

Prompt line: Request the reported cytotoxicity at 70.5 h associated with CC(=O)N1CCC1c1cc(NC2CCOCC2)nc(C)n1 (stereo not given)
Response line: -0.759%

Prompt line: Entry to check: CCNCCC(Cc1ccccc1)c1ccco1 (stereo not given)
Response line: -8.72%

Prompt line: # iterate: OCCn1nccc1C1CCN(CCCOc2ccc(F)cc2)CC1
Response line: -1.62%

Prompt line: Same read-out for Cc1ccc(-c2noc(CN3CCn4c(nnc4C4CC4)C3)n2)cc1 ?
Response line: -16%

Prompt line: Also COc1ccc(-n2cccn2)cc1S(=O)(=O)N1C[C@H](C2CC2)[C@@H](N)C1 , if possible.
Response line: -3.3%

Prompt line: Entry to check: CN(C)C(CNC(=O)c1ccc(-n2cnnn2)cc1)c1ccccc1Cl (stereo not given)
Response line: 5.44%

Prompt line: What do you have for Cc1ccc(CN2CCC3(CCCN3S(C)(=O)=O)CC2)s1 ?
Response line: -11.8%

Prompt line: Entry to check: COc1cccc2c3c(c(=O)n(C)c12)CCC(C)(C)O3
Response line: -10.4%

Prompt line: Check Cc1csc(CN2CC[C@H]3C[C@H](c4nc(C)no4)O[C@@H]3C2)n1 too.
Response line: -10.4%

Prompt line: Please give the result for Cn1cccc1C(=O)N1C[C@@H]2CCCO[C@@H]2[C@H](N2CCOCC2)C1 too.
Response line: 0.647%

###

Test: Human HepG2 cell viability assay in 384 well format
Assay type: toxicity, cell-based
Set-up: dose 125 nL, time 70.5 hour; concentration not given beside the values
Details: HepG2 cells, read-out: Inhibition
assay readout: cytotoxicity at 70.5 h
Reply with the number, then its unit.

Prompt line: Which cytotoxicity at 70.5 h reading was recorded for the compound O=C(Nc1cnccn1)[C@@H]1COC[C@H]2CN(c3ncc(F)cn3)C[C@H]21 ?
Response line: -4.35%

Prompt line: Try CCOC(=O)N1CCN(C(=O)CCn2ccc3c(OC)cccc32)CC1 next.
Response line: -9.78%

Prompt line: For CCCN1CCCn2nc(CNC(=O)CCOC)cc2C1 then?
Response line: -4.33%

###

Assay: Human HepG2 cell viability assay in 384 well format
Assay type: toxicity, cell-based
Design: dose 125 nL, time 70.5 hour; concentration not given beside the values
Conditions: HepG2 cells, read-out: Inhibition
assay readout: cytotoxicity at 70.5 h (%)
Note: unit % is implicit; provide only the numeric part.

Prompt line: Any idea what its cytotoxicity at 70.5 h is? The compound is c1ccc(CCCN2CCN(c3ccc4nncn4n3)CC2)cc1
Response line: 0.863

Prompt line: Try this compound next: Cc1noc(-c2cnc(NCC3CCCO3)nc2-c2ccco2)c1C (stereo unspecified)
Response line: -7.96

Prompt line: Entry to check: N#Cc1cc(Cl)ccc1N1CCN(C(=O)C2CCC2)CC1
Response line: -1.06

Prompt line: Now the compound CCc1ncncc1C(=O)NCCNS(=O)(=O)c1ccccc1
Response line: 13.9

Prompt line: Field entry: Cc1nc2ccccc2nc1CN1CCc2c(nc(C3CC3)n2C)C1
Response line: -0.539

Prompt line: What about CC(=O)c1cccc(S(=O)(=O)N2CCC(c3n[nH]c(C)n3)CC2)c1 ?
Response line: 2.75

Prompt line: Repeat with CC(C)N1CCCCC1c1cncc(Cl)n1 (stereo unspecified)
Response line: 17.6

Prompt line: Try this compound next: CN(C)CCN(C)S(=O)(=O)Cc1ccc(Br)cc1
Response line: 11.7

Prompt line: Here is the next compound: CN(Cc1nnc(C2CC2)n1C)C(=O)c1ccnc(OC2CCC2)c1
Response line: -10.6

Prompt line: Now try Cc1nn(C)c(C)c1C1CCCN1C(=O)CCNS(C)(=O)=O (stereo unspecified) .
Response line: -5.69

Prompt line: Likewise for Cc1nc(CN2CC3(CCN(c4ncc(F)cn4)C3)CC2=O)cs1 (stereo unspecified) ?
Response line: -0.115

Prompt line: Try this compound next: COCC(NC(=O)c1cc[nH]n1)c1cccc(C(F)(F)F)c1 (stereo unspecified)
Response line: -0.606

Prompt line: Try CC(=O)N(C)CC(=O)NC1(c2ccc(Cl)c(Cl)c2)CC1 next.
Response line: -10

Prompt line: Repeat with O=C(NCC1(CO)CC1)c1cccc2ccccc12
Response line: 2.2

Prompt line: And for O=C(NCCSC1CCCC1)c1c(F)cccc1F ?
Response line: -6.07

Prompt line: Same for CN1CCN(C(=O)[C@H]2CC[C@@H]3[C@@H](CCN3Cc3ccsc3)O2)CC1
Response line: -6.96

###

Could you please report measured cytotoxicity at 70.5 h for the items listed next?
Experiment: Human HepG2 cell viability assay in 384 well format
Format: toxicity, cell-based
Parameters: dose 125 nL, time 70.5 hour; concentration not given beside the values
Conditions: HepG2 cells, read-out: Inhibition
Please give a number only; it is taken to be in %.

Prompt line: Which cytotoxicity at 70.5 h reading was recorded for the compound CCn1nnc2c1C(COCCN(C)C)CN(c1nncs1)C2 (stereo not given) ?
Response line: 31.1

Prompt line: And the next one, c1csc(CN2CC3(CCN(Cc4ccsc4)C3)C2)n1 ?
Response line: 8.65

Prompt line: Could you do the same for COC(=O)CCc1c(C)nn(-c2nc(C)cc(=O)[nH]2)c1C , please?
Response line: 36.4

Prompt line: Continue with Cc1cnn(CC2CCCN2C(=O)c2cccc(CC#N)c2)c1 (stereo not given)
Response line: -22

Prompt line: Also CCc1ncncc1C(=O)NCCNC(=O)c1ccc(C)c(F)c1 ?
Response line: -8.42

Prompt line: Then this compound: FC(F)(F)c1cccc(-c2c[nH]c(C3CCCN3)n2)c1 (stereo not given)
Response line: 1.03

Prompt line: How about this compound: COc1ccc(CN2C[C@H]3CN(Cc4ccncc4)C(=O)[C@H]3C2)cc1
Response line: -7.43

Prompt line: Record: CC(=O)N1CC[C@H](c2nnc(Cc3c[nH]c4ccccc34)o2)C1
Response line: -3.38

Prompt line: Can you handle Cc1cnn(CC2CCCN2C(=O)Cc2n[nH]c3ccccc23)c1 (stereo not given) next?
Response line: -14.5

Prompt line: And what about the compound O=C1CC[C@]2(CC[C@@H](NCc3cccnc3)CC2)N1Cc1ccccc1 ?
Response line: -11.6

###

Test: Human HepG2 cell viability assay in 384 well format
Assay type: toxicity, cell-based
Design: dose 125 nL, time 70.5 hour; concentration not given beside the values
Settings: HepG2 cells, read-out: Inhibition
Assignment: determine reported cytotoxicity at 70.5 h for the given compounds.
Give the quantity in %, number only.

Prompt line: Given COc1ccc(-c2ccnc3nc(N4CCCC4)[nH]c(=O)c23)cc1OC , state its recorded cytotoxicity at 70.5 h.
Response line: -9.78

Prompt line: # iterate: CC(C)(C)c1ccc2c(c1)CCN2C(=O)c1nc(=O)[nH][nH]1
Response line: 0.34

Prompt line: Another compound to check: COc1ccc(CNC[C@H]2Cn3ccnc3CO2)cn1
Response line: -2.5

Prompt line: Now the same for CCOCc1nc2c(c(NC(CC)c3ccnn3C)n1)CCNCC2 (stereo not drawn)
Response line: 0.295

Prompt line: How about Cn1cc(C(O)CNC(=O)c2cc(Br)ccc2Cl)cn1 (stereo not drawn) ?
Response line: -14.2

Prompt line: Also O=C(NC1CCCN(CCCc2ccccc2)C1)c1ccc(Cl)s1 (stereo not drawn) ?
Response line: -4.66

Prompt line: Try CS(=O)(=O)N[C@@H]1CN(C(=O)c2cccnc2)[C@@H]2CCCO[C@@H]21 next.
Response line: -5.12

Prompt line: Could you do the same for O=C1CC[C@H]2CN(c3ncc(F)cn3)CC[C@H]2N1CCc1ccccn1 , please?
Response line: -5.32

Prompt line: Now give it for Cc1cc(C(=O)NCC2Cn3nnc(C)c3CO2)no1 (stereo not drawn) too.
Response line: -7.19

Prompt line: Here is the next compound: Cc1cc(C)c(CNC(=O)NCc2nnc3n2CCCC3)c(=O)[nH]1
Response line: -13.4

Prompt line: Ok, now COCCN1CCCC(Cc2ccc(N3CCOCC3)nn2)C1 (stereo not drawn)
Response line: -7.53

Prompt line: CC(C)OC(=O)N1C[C@H]2CC[C@@H]1CN(C(=O)c1ccccn1)C2 , same question.
Response line: 10.5

Prompt line: Another compound: CNc1ncccc1CN1CCCCC1c1ccnc(N)n1 (stereo not drawn)
Response line: -3.08

Prompt line: How about this compound: CCC(=O)NCc1cc(C2CC2)n(C2CCCC2)n1
Response line: 13.9

Prompt line: Would you mind doing CCn1ccnc1CN1CCCC(N(C)CCc2ccccc2)C1 (stereo not drawn) as well?
Response line: -1.22

Prompt line: COCCN1CCOCC2(CCN(c3cnccn3)CC2)C1 , same question.
Response line: 8.46

Prompt line: Entry to check: CN(CCOc1ccc(C#N)cc1)CC1CC1
Response line: 3.53

Prompt line: Now give it for Cc1nc(C2CN(Cc3ccc(F)cc3Br)CCO2)no1 (stereo not drawn) too.
Response line: -5.56

Prompt line: Try the compound Cc1nc(CN(C)C2CCN(CCCOc3ccccc3)C2)no1 (stereo not drawn)
Response line: 39.5

Prompt line: For COc1cc(C)ccc1OCC(=O)NS(=O)(=O)c1cccnc1 then?
Response line: -3.71

Prompt line: Entry to check: Cc1cc(CN2CCN(C(=O)NCCCc3cn[nH]c3C)CC2)on1
Response line: -4.02

Prompt line: Ok, now CNC(=O)c1cc2c(nc1N(C)C)CCN(c1ncccn1)CC2
Response line: -12

Prompt line: And for CCN(CC)C(CNC(=O)c1c(C)noc1C(C)C)c1ccsc1 (stereo not drawn) ?
Response line: 0.627

Prompt line: Now give it for CC(C)CN1CC[C@@H]2[C@H](CC1)N(S(C)(=O)=O)CCS2(=O)=O too.
Response line: -11.1

Prompt line: And then CN(C)c1nccc(N2CCO[C@H]3CN(Cc4nccn4C)C[C@H]32)n1 , what is it?
Response line: -0.595

Prompt line: One more compound: Cc1cccc(S(=O)(=O)NC(=O)CCc2cscn2)c1
Response line: 4.67

Prompt line: Proceed to CC(NCc1cccc2c1OCCO2)c1cc2c(cc1Br)OCCO2 (stereo not drawn)
Response line: -7.55

Prompt line: Again, but for O=C(Nc1ccc(F)cc1)N(CCC(F)(F)F)C[C@H](O)CO
Response line: -0.146

Prompt line: And then Cc1noc(C)c1S(=O)(=O)NC(=O)COc1cccc(C(C)C)c1 , what is it?
Response line: -2.21

Prompt line: // query: CNC(=O)NC(=O)CSC(C)c1ccccc1F (stereo not drawn)
Response line: -15.4

Prompt line: CCC(C)NC(=O)c1nnn(-c2ccc(Br)cc2)n1 (stereo not drawn) , same question.
Response line: 5.21

Prompt line: How about this compound: Cc1ccccc1CN1CCC2(CC1)CN(S(=O)(=O)c1ccccc1)C2
Response line: -6.98

Prompt line: Subsequent entry: CC(=O)c1cccc(OCCCC(=O)N(C)Cc2cccc(O)c2)c1
Response line: -6.39

Prompt line: Then what about the compound COc1ncccc1CN1CCC2(CC1)COCCN2C ?
Response line: -8.7

Prompt line: Also CCOC1CC2(CCN(CCO)CC2)c2ccc(C)cc21 (stereo not drawn) , if possible.
Response line: 1.71

Prompt line: Same lookup for Cc1c(NC(C)C(C)C)cccc1C(=O)NCc1cnn(C)c1 (stereo not drawn) , please.
Response line: -2.68

Prompt line: Input CS(=O)(=O)N1CCOC2(CCN(c3nccs3)CC2)c2ccccc21
Response line: 15.3

Prompt line: Also CC1CN(C)CCN1CC(=O)NCCOc1ccc2c(c1)OCO2 (stereo not drawn) , if possible.
Response line: 9.64

Prompt line: How about O=C(CC1CC1)NC1CCc2c(ccc(=O)n2CC2CC2)C1 (stereo not drawn) ?
Response line: 0.842

Prompt line: Try the compound CCc1cc(NCC(N)=O)nc(N2CCCCC2)n1
Response line: -8.82

Prompt line: Please give the result for CCn1cc(Br)c(C(=O)NCc2cccnc2)n1 too.
Response line: -7.68

Prompt line: Query CCc1nnsc1C(=O)NC1CCN(CCOc2ccc(Br)cc2)CC1 next
Response line: -4.31

Prompt line: Next compound up: Cc1ccc(C(=O)N2C[C@H](OCC3CCOCC3)[C@H]3OCCC[C@H]32)o1
Response line: 0.644
